# assay.notes: E-selectin induction blockers in HUVEC – imaging, immunofluorescence, high content, primary screen (AID 1246)
# condition: HUVEC TNFa-induced E-selectin immunofluorescence, at 2 µM
Among all 120,000 compounds or so, about 840 (0.7%) were called active.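 The calls were made as follows: active = inhibition above the batch mean plus 3 SD, and confirmed as a hit on visual image review (cut at about 43% in these data); inconclusive = passes the inhibition cutoff but fails visual image review; inactive = the rest.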 The entries come from a sample that favours actives as a whole.
Outcomes you can answer with include only these: Y (active), N (inactive)

(Q) Hi, sorry to bother you, what did the test record for O=C(O)CCn1c(SCc2cc(=O)n3ccccc3n2)nc2ccsc2c1=O ?
(A) N

(Q) Hi, sorry to bother you, what did the test record for O=c1cc(O)c(-c2cccc(C(F)(F)F)c2)c(Cl)[nH]1 ?
(A) N

(Q) Hi, sorry to bother you, what did the test record for Cc1ccc(C)c(Cn2cnc3c(oc4ccccc43)c2=O)c1 ?
(A) N

(Q) Hi, sorry to bother you, what did the test record for CC(=O)Nc1nc(N(C)C)nc(N(C)C)n1 ?
(A) N

(Q) Hi, sorry to bother you, what did the test record for CC(=O)c1ccc2c(ccc3ccccc32)c1 ?
(A) N

(Q) Hi, sorry to bother you, what did the test record for CCCS(=O)(=O)N1CCC(CCOc2ccccc2)(C(=O)OCC)CC1 ?
(A) N

(Q) Hi, sorry to bother you, what did the test record for COc1ccc(CCNC(=O)CC2SC(=Nc3cc(C)cc(C)c3)NC2=O)cc1OC (configuration not stated) ?
(A) N

(Q) Hi, sorry to bother you, what did the test record for O=C(Nc1cccc(F)c1)N1C2CCC1CC(O)(c1cccnc1)C2 (configuration not stated) ?
(A) N

(Q) Hi, sorry to bother you, what did the test record for Cc1ccc(C(=O)NC(=S)Nc2ccc(N3CCOCC3)cc2)cc1 ?
(A) N

(Q) Hi, sorry to bother you, what did the test record for CCN(CCCNC(=O)CCn1c(=O)[nH]c2ccsc2c1=O)c1ccccc1 ?
(A) N

(Q) Hi, sorry to bother you, what did the test record for CCN(CC)Cc1cc(C(C)=O)ccc1O ?
(A) Y

(Q) Hi, sorry to bother you, what did the test record for COCc1cc(C(C)=O)ccc1OC ?
(A) N
